- experimental-system: Alpha-bungarotoxin (Bungarus multicinctus) (UniProt P60615)
- Sequence (P60615 whole entry, looked up): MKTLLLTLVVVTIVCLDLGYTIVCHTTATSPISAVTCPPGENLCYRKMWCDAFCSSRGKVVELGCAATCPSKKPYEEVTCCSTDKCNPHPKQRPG
- assay-comment: compounds binding labelled alpha-BTX control protein – biochemical, small-molecule microarray, Alexa647 label, 635/667 nm fluorescence, artefact control for SMM control protein annotation, profiling panel (AID 1117)
- measurement-setup: alpha-BTX-A647 binding fluorescence, higher = more signal
Give composite z-score for every item shown.
Answers are plain numbers.

Example compounds with recorded composite z-score:
* C=CCNC(=O)[C@@H]1[C@H]2C(=O)O[C@H](c3ccccc3)[C@H](c3ccccc3)N2[C@H](c2ccccc2OCCO)[C@@]12C(=O)Nc1ccc(C#CCCO)cc12 | 0.0913
* CCOC(=O)C[C@H]1[C@H](OC(=O)Cc2ccc3c(c2)OCO3)[C@@H](NC(=O)C2CCCCC2)c2cc(OCCCO)ccc2N1C(=O)c1ccccc1 | 0.262
* O=C1N(Cc2ccccc2)c2ccccc2C[C@]12N=C(c1ccc(OCCCO)cc1)O[C@@H]2c1ccccc1 | 0.743
* O=C1OCCC=C[C@H]2OC34C=CCN(c5ccc6ccccc6c5)C(=O)[C@H]3N(CCCO)C(=O)[C@@H]4C12 (stereo partly specified) | -1.27
* CCCC[C@@H](O)C1=C(COc2ccccc2)C[C@H]2C(=O)N(Cc3ccccc3)C(=O)[C@H]2[C@H]1CO | 1.29

// switching to the query compound
What does the record list as composite z-score for COCCOC(=O)N1C(=O)[C@@]2(c3cc(C#CCCO)ccc31)[C@H](c1ccc(OCCO)cc1)N1[C@H](c3ccccc3)[C@H](c3ccccc3)OC(=O)[C@H]1[C@@H]2C(=O)Nc1nc2ccccc2s1 ? 1.96

Sourced from PubChem BioAssay
